Biological target: KRas G12C (Homo sapiens, UniProt P01116, G12C)
Sequence (P01116 1-169 isoform P01116-2 G12C): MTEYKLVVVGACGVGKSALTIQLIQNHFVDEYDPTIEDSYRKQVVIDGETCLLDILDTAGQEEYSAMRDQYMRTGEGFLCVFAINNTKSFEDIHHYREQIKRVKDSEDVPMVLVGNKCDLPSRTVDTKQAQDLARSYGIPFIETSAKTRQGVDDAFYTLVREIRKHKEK
Assay type: binding
Conditions: TR-FRET displacement, read-out: Binding to KRas (IC50 nM) G12C
Labelling: IC50 reported below 700 nM becomes 1.0; at or above becomes 0.0.

Molecule	Experimental System	Class Name
CCc1cccc2cccc(N3CCc4c(nc(OCC5(CN(C)C)CC5)nc4N4CCC(n5cn[nH]c5=O)CC4)C3)c12	KRas G12C (Homo sapiens, UniProt P01116, G12C)	0.0
CCc1cccc2cccc(N3CCc4c(nc(OCC5(CN(C)C)CC5)nc4N4CCCn5nc(CO)cc5C4)C3)c12	KRas G12C (Homo sapiens, UniProt P01116, G12C)	1.0
CCc1cccc2cccc(N3CCc4c(nc(OCC5(CN(C)C)CC5)nc4NC4CC(n5ccnn5)C4)C3)c12 (stereo not shown)	KRas G12C (Homo sapiens, UniProt P01116, G12C)	0.0
CCc1cccc2cccc(N3CCc4c(nc(OCC5(CN(C)C)CC5)nc4NCc4cc(CO)[nH]n4)C3)c12	KRas G12C (Homo sapiens, UniProt P01116, G12C)	0.0
Oc1cc(Cl)c(C2CC2)c(N2CCc3c(nc(OCC45CCCN4CCC5)nc3N3CCC[C@]4(C3)C[C@@H](O)C4)C2)c1	KRas G12C (Homo sapiens, UniProt P01116, G12C)	1.0
CCc1c(F)ccc2cc(O)cc(N3CCc4c(nc(OCC56CCCN5C/C(=C\F)C6)nc4N4CCCn5nc(C(=O)N(C)C)cc5C4)C3)c12 (stereo not shown)	KRas G12C (Homo sapiens, UniProt P01116, G12C)	1.0

Below: the item to evaluate.
-- ask Dear colleague, could you confirm whether IC50 of `CN(C)C(=O)c1cc2n(n1)CCCN(c1nc(OCC34CCCN3CCC4)nc3c1CCN(c1cc(O)cc(Cl)c1C1CC1)C3)C2` falls below 700 nM? Thanks.
-- reply 1.0

* * *

In this section we review reported IC50 values for a set of compounds.
Target: KRas WT (Homo sapiens)
Sequence (P01116 1-169 isoform P01116-2): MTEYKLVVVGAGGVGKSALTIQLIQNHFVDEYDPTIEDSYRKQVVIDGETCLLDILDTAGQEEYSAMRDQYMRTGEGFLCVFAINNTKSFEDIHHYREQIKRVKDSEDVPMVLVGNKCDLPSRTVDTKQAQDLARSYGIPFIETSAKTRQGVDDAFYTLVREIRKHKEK
Assay: KRas binding assay (TR-FRET displacement), KRas WT
Conditions: TR-FRET displacement
Write the number in nM without appending the unit.

Previously resolved entries follow.
Compound	Units	IC50
Oc1cc(Cl)c(C2CC2)c(N2CCc3c(nc(OCC45CCCN4CCC5)nc3N3CCC[C@]4(C3)C[C@H](O)C4)C2)c1	nM	46
CCc1cccc2cccc(N3CCc4c(nc(OCC5(CN(C)C)CC5)nc4N4Cc5nncn5C(C)C4)C3)c12 (stereo not shown)	nM	5230
CCc1cccc2cccc(N3CCc4c(nc(OCC5(CN(C)C)CC5)nc4NC4CN(C(=O)NC)C4)C3)c12	nM	5010
CCc1cccc2cccc(N3CCc4c(nc(OCC5(CN(C)C)CC5)nc4NCc4ccnn4C4CC4(F)F)C3)c12 (stereo not shown)	nM	256
Cc1cc2[nH]ncc2c(N2CCc3c(nc(OCC45CCCN4CCC5)nc3N3CCC[C@]4(C3)NC(=O)NC4=O)C2)c1C	nM	4

The value of IC50 measured for the compound Cc1cc2[nH]ncc2c(N2CCc3c(nc(OCC45CCCN4CCC5)nc3N3CCCC4(CC(=O)N4)C3)C2)c1C (stereo not shown) turned out to be 53

* * *

Here the recorded IC50 is given for each entry.
Target: KRas G12R (Homo sapiens, UniProt P01116, G12R)
Sequence (P01116 1-169 isoform P01116-2 G12R): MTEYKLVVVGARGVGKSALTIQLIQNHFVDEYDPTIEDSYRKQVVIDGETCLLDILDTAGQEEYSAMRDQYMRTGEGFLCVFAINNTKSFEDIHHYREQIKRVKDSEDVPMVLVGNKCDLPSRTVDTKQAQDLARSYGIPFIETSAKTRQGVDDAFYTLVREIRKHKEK
Assay: biochemical
Settings: Binding to KRas (IC50 nM) G12R, TR-FRET displacement, KRas G12R

Compound	Experimental System	IC50
CCc1c(F)ccc2cc(O)cc(N3CCc4c(nc(OC[C@@]56CCCN5C[C@H](F)C6)nc4N4CCCn5nc(C(=O)NC)c(Cl)c5C4)C3)c12	KRas G12R (Homo sapiens, UniProt P01116, G12R)	< 2 nM
CCc1cccc2cccc(N3CCc4c(nc(OCC5(CN(C)C)CC5)nc4N4CCCN(CC(F)(F)F)CC4)C3)c12	KRas G12R (Homo sapiens, UniProt P01116, G12R)	11400 nM
CCNC(=O)c1nn2c(c1C)CN(c1nc(OC[C@@]34CCCN3C[C@H](F)C4)nc3c1CCN(c1cc(O)cc4ccc(F)c(CC)c14)C3)CCC2	KRas G12R (Homo sapiens, UniProt P01116, G12R)	< 2 nM

Item: O=S1(=O)CCC2(CCCN(c3nc(OC[C@@]45CCCN4C[C@H](F)C5)nc4c3CCN(c3cc(O)cc5cccc(Cl)c35)C4)C2)N1 (stereo partly drawn) | IC50: < 2 nM

Per the records, this compound ( `CCc1c(F)ccc2cc(O)cc(N3CCc4c(nc(OC[C@@]56CCCN5C[C@H](F)C6)nc4N4CCCc5n[nH]cc5C4)C3)c12` ) has IC50 equal to 5 nM

IC50 recorded for this compound, `CCCCN(C)C(=O)c1cc2n(n1)CCCN(c1nc(OC[C@@]34CCCN3C[C@H](F)C4)nc3c1CCN(c1cc(O)cc4ccc(F)c(CC)c14)C3)C2` , is < 2 nM

* * *

Biological target: KRas G12A (Homo sapiens, UniProt P01116, G12A)
Sequence (P01116 1-169 isoform P01116-2 G12A): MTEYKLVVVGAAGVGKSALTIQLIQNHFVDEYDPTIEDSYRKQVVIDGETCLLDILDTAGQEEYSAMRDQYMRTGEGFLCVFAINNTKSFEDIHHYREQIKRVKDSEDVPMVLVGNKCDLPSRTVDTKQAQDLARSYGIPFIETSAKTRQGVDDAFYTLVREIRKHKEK
Format: binding
Settings: single point, 10 nM compound, read-out: Binding to KRas (% inhibition at 10 nM) G12A
Experimental Endpoint: inhibition at 0.01 µM (%)
Could you give me the number in %? Just the number is fine.

Compound	inhibition at 0.01 µM / %
CCc1c(F)ccc2cc(O)cc(N3CCc4c(nc(OC[C@@]56CCCN5C[C@H](F)C6)nc4N4CCCn5nc6c(c5C4)CCNC6=O)C3)c12 [Example 408]	98
CCc1c(F)ccc2cc(O)cc(N3CCc4c(nc(OC[C@@]56CCCN5C[C@H](F)C6)nc4N4CCCn5nc(C(=O)NC(C)C)c(C)c5C4)C3)c12 [Example 371]	91
CCc1c(F)ccc2cc(O)cc(N3CCc4c(nc(OC[C@@]56CCCN5C[C@H](F)C6)nc4N4CCCn5nc(C(=O)N(C)CCOC)cc5C4)C3)c12 [Example 382]	98
CCNC(=O)c1cc2n(n1)CCCCN(c1nc(OC[C@@]34CCCN3C[C@H](F)C4)nc3c1CCN(c1cc(O)cc4ccc(F)c(CC)c14)C3)C2 [Example 301]	89
CCc1c(F)ccc2cc(O)cc(N3CCc4c(nc(OC[C@@]56CCCN5C[C@H](F)C6)nc4N4CCCn5nc(C(=O)N6C[C@H](C)N[C@@H](C)C6)cc5C4)C3)c12 [Example 282]	98

# evaluate next
Measured inhibition at 0.01 µM (KRas G12A (Homo sapiens, UniProt P01116, G12A)), entry CCc1c(F)ccc2cc(O)cc(N3CCc4c(nc(OC[C@@]56CCCN5C[C@H](F)C6)nc4N4CCCn5nc(C(=O)N(C)C)c(COC)c5C4)C3)c12 [Example 269] : 99

* * *

Target: KRas G12C (Homo sapiens, UniProt P01116, G12C)
Format: binding
Conditions: TR-FRET displacement, read-out: Binding to KRas (IC50 nM) G12C
# note: exactly 300 nM is not below, so it is NOT MET; use MET for IC50 strictly under it

-- ask Strictly below 300 nM: is that where IC50 of C[C@@H]1C[C@@H]1c1c(Cl)cc2[nH]ncc2c1N1CCc2c(nc(OCC34CCCN3CCC4)nc2N2CCC[C@]3(C2)NC(=O)NC3=O)C1 [Example 449] sits?
-- reply MET

* * *

Target: KRas G12A (Homo sapiens, UniProt P01116, G12A)
Assay type: binding
Conditions: TR-FRET displacement, read-out: Binding to KRas (IC50 nM) G12A
Experimental Endpoint: IC50 (nM)
Hi! Could you send only the number? It should be in nM, unit omitted.

Please review the following examples before continuing.
Compound	IC50 (nM)
Cc1cc2[nH]ncc2c(N2CCc3c(nc(OCC45CCCN4CCC5)nc3N3CC4CC(O)C(C4)C3)C2)c1C (stereo not shown) [Example 457]	1250
CCc1cccc2cccc(N3CCc4c(nc(OCC5(CN(C)C)CC5)nc4N4CCCN(CC(F)(F)F)CC4)C3)c12 [Example 684]	2640

Okay, now this compound:
According to the records, this compound Oc1cc(Cl)c(C2CC2)c(N2CCc3c(nc(OCC45CCCN4CCC5)nc3N3CCC[C@]4(C3)C[C@H](O)C4)C2)c1 [Example 440] displays IC50 of 46

* * *

Biological target: KRas Q61H (Homo sapiens, UniProt P01116, Q61H)
Sequence (P01116 1-169 isoform P01116-2 Q61H): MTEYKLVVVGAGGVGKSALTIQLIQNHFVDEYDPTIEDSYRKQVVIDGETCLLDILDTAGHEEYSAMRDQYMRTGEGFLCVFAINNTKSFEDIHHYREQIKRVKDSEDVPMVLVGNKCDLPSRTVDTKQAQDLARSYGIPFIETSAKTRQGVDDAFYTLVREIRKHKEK
Assay: KRas binding assay (TR-FRET displacement), KRas Q61H
Conditions: single point, 10 nM compound
Label true (1) when inhibition at 0.01 µM is at or above 90%; anything below gets false (0).

Use these answered entries as a reference point.
Compound	Class Name
CCc1c(F)ccc2cc(O)cc(N3CCc4c(nc(OC[C@@]56CCCN5C[C@H](F)C6)nc4N4CCCn5nc(NC)c(F)c5C4)C3)c12	false (0)
CCc1c(F)ccc2cc(O)cc(N3CCc4c(nc(OC[C@@]56CCCN5C[C@H](F)C6)nc4N4CCCn5nc(C(=O)N(CC)CC)cc5C4)C3)c12	true (1)
CCc1c(F)ccc2cc(O)cc(N3CCc4c(nc(OC[C@@]56CCCN5C[C@H](F)C6)nc4N4CCCn5nc(C(=O)N6CC7COCC6C7)cc5C4)C3)c12 (stereo partly drawn)	true (1)
CCc1c(F)ccc2cc(O)cc(N3CCc4c(nc(OC[C@@]56CCCN5C[C@H](F)C6)nc4N4CCCn5nc(C(=O)N6CCC7CC76)cc5C4)C3)c12 (stereo partly drawn)	true (1)
CCc1c(F)ccc2cc(O)cc(N3CCc4c(nc(OC[C@@]56CCCN5C[C@H](F)C6)nc4N4CCCc5nc(C(=O)N(C)C)sc5C4)C3)c12	false (0)
CCc1c(F)ccc2cc(O)cc(N3CCc4c(nc(OC[C@@]56CCCN5C[C@H](F)C6)nc4N4CCCn5nnc(Cl)c5C4)C3)c12	false (0)

API: the following record is the query input.
-- ask Tell me whether inhibition at 0.01 µM is at least 90% here: `CCNC(=O)c1nn2c(c1Cl)CN(c1nc(OC[C@@]34CCCN3C[C@H](F)C4)nc3c1CCN(c1cc(O)cc4ccc(F)c(CC)c14)C3)CCC2`
-- reply true (1)
